B1: TPR t1 (parent)
chain: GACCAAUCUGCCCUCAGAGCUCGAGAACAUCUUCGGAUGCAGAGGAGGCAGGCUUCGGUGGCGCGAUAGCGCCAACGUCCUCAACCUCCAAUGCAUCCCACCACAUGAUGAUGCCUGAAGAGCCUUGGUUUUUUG

Variants of: B1
Experiment: polymerase ribozyme fitness, log enrichment relative to wild type (log ratio); higher = more active; in vitro selection for triplet polymerase activity
polymerase ribozyme fitness (log ratio) class ranges: low (below -3), mid (-3 to below -2), high (-2 or more)

- SEQ_TEXT: "GACCAAUCAGCCCUCAGAGCUCGAGAACAUCUUCGGAUGCAGAGGAGGCAGGCUAAGGUGGCUCGAUAGCGCCAACGUCCUCAACCUCCAAUGCAUCCCACCACAUGAUGAUGCCUGAAGAGCCUUGGUUUUUUG [U9A U55A C56A G63U]"
  ASSIGNED_LABEL: "low"

Query: Where would GACCAAUCUGCCCUCAGAGCUCGAGAACAUCUUCGGAUGCAGAGCAGGCAGGCUUCGGUGGCGCGAUAGCGCCAACGUCCUCAACCUCCAAUGCAUCCCACCACAUGAUGAUGCCUGAAGAGCCUUGGUUUUGUU [G45C U133G G135U] land among the classes by reported polymerase ribozyme fitness (log ratio)?
Result: high

Query: Where would GACCAAUCUGCCCUCAGAGCUCGAGAACAUCUUAGGAUGUAGAGGAGGAAGGCUUCGGUGGUGCGAUAGCGCCAACGUCCUCAACCUCCAAUGCAGCCCACCACAUGAUGAUGCCUGAAGAGCCUUGGUUUUUUG [C34A C40U C49A C62U U96G] land among the classes by reported polymerase ribozyme fitness (log ratio)?
Result: low
